Assay: Plasma and tumor tissue concentrations following oral administration in VCaP xenograft model (HPLC/MS/MS)
Type: in vivo, mice
Details: mouse, tumor tissue, 10 mg/kg orally once daily for 3 days, 6 hours after the last administration, read-out: Concentration in Tumor Tissue
Quantity: concentration at 6 h
The number alone won't do; follow it with the unit.

Exercise: # query: concentration at 6 h of entry N#Cc1ccc(N2CCC(C(=O)Nc3ccc(OC4CCN(CC5CCN(c6ccc(N[C@H]7CCC(=O)NC7=O)cc6F)CC5)CC4)cn3)CC2)cc1C(F)(F)F
Key: 6130 ng/g

---

Recorded Dmax at 0.01 µM for the following compounds
Molecular target: Androgen Receptor (AR) (Homo sapiens, UniProt P10275)
Sequence (P10275 1-920): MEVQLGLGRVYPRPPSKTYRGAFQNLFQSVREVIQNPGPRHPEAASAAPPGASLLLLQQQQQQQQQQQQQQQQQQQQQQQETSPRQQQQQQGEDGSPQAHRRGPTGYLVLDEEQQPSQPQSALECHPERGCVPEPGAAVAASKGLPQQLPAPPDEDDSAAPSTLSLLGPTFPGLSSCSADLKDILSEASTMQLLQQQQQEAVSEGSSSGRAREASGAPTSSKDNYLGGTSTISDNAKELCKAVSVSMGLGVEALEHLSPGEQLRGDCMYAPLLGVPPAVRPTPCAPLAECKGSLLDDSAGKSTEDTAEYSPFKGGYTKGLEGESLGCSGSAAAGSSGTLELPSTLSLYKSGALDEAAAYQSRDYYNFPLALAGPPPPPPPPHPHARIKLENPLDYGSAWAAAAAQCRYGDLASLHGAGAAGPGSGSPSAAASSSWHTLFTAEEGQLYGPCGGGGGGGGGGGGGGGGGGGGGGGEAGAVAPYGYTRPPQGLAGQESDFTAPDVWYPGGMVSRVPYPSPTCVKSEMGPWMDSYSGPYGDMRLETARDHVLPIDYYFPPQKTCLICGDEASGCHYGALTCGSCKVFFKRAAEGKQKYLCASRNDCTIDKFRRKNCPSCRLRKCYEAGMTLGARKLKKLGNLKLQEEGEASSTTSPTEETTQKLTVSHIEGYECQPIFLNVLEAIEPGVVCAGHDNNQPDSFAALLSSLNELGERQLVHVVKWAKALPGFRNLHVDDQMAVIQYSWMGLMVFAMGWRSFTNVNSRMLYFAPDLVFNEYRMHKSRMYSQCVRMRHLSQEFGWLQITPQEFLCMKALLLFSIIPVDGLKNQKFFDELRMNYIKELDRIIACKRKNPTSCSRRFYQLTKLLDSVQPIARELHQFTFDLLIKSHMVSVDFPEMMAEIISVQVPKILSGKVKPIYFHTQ
Assay: Measurement of AR protein degradation in VCaP cells by Western blotting
Type: cell-based
Design: endogenous in cells; host or cells: VCaP
Conditions: VCaP, 20 h, read-out: AR degradation in VCaP cells (%)
Write the number in % without appending the unit.

Consider the reported Dmax at 0.01 µM for these compounds:
{"columns": ["Compound", "Target Desc", "Unit String", "Measured Value"],
 "data": [
  ["N#Cc1ccc(N2CCC(C(=O)Nc3ccc(OC4CCN(CC5CCN(c6ccc(NC7CCC(=O)NC7=O)cc6F)CC5)CC4)cn3)CC2)c(F)c1C(F)(F)F (stereo not drawn) [Example 11]", "Androgen Receptor (AR) (Homo sapiens, UniProt P10275)", "%", 89],
  ["N#Cc1ccc(N2CCC(C(=O)Nc3ccc(OC4CCN(CC5CCN(c6ccc(N[C@H]7CCC(=O)NC7=O)cc6F)CC5)CC4)cn3)CC2)cc1Cl [Example 9]", "Androgen Receptor (AR) (Homo sapiens, UniProt P10275)", "%", 94],
  ["N#Cc1ccc(N2CCC(C(=O)Nc3ccc(OC4CCN(CC5CCN(c6ccc(N[C@@H]7CCC(=O)NC7=O)cc6F)CC5)CC4)cn3)CC2)cc1C(F)(F)F [Example 3]", "Androgen Receptor (AR) (Homo sapiens, UniProt P10275)", "%", 72],
  ["N#Cc1ccc(N2CCC(C(=O)Nc3ccc(OC4CCN(CC5CCN(c6ccc(NC7CCC(=O)NC7=O)cc6F)CC5)CC4)nn3)CC2)c(F)c1Cl (stereo not drawn) [Example 15]", "Androgen Receptor (AR) (Homo sapiens, UniProt P10275)", "%", 98],
  ["N#Cc1ccc(N2CCC(C(=O)Nc3ccc(OC4CCN(CC5CCN(c6ccc(NC7CCC(=O)NC7=O)cc6F)CC5)CC4)nn3)CC2)cc1C(F)(F)F (stereo not drawn) [Example 7]", "Androgen Receptor (AR) (Homo sapiens, UniProt P10275)", "%", 94]
]}

Now take the following compound into account.
Exercise: # query: Dmax at 0.01 µM of entry N#Cc1ccc(N2CCC(C(=O)Nc3ccc(OC4CCN(CC5CCN(c6ccc(NC7CCC(=O)NC7=O)cc6Cl)CC5)CC4)cn3)CC2)cc1C(F)(F)F (stereo not drawn) [Example 17]
Key: 75
